These measurements were taken from the supplement of paper PMC3770661.

# System: HepG2 (L1.3 5'UTR promoter firefly luciferase reporter)
# PROTOCOL_DESCRIPTION: L1 promoter activity (FLuc/RLuc) relative to DMSO vehicle control (% of control); higher = stronger L1 promoter activation
# CONDITION: concentration (uM unless unit written): 1000; treatment time: 6 h
The label depends only on L1 promoter activity: Criterion met if it is at least 100, Criterion not met if it is smaller.

Nc1nc2c(ncn2COC(CO)CO)c(=O)[nH]1 ... Criterion met
CCC1(c2ccc(N)cc2)CCC(=O)NC1=O (stereo unspecified) [Aminoglutethimide] ... Criterion not met
ClC(Cl)(Cl)Cl [Carbon tetrachloride] ... Criterion met
Cc1cccc(Nc2ccccc2C(=O)O)c1C ... Criterion not met
CN(C)CCN(Cc1cccs1)c1ccccn1 ... Criterion not met

###

# System: HepG2 (L1.3 5'UTR promoter firefly luciferase reporter)
# PROTOCOL_DESCRIPTION: L1 promoter activity (FLuc/RLuc) relative to DMSO vehicle control (% of control); higher = stronger L1 promoter activation
# CONDITION: concentration (uM unless unit written): 50; treatment time: 24 h
Structures can show the parent of a compound that is named as a salt.
L1 promoter activity values, listed per item
PROPERTY_NAME: L1 promoter activity

C[C@]12CCC(=O)C=C1CC[C@@H]1[C@@H]2CC[C@@]2(C)[C@H]1CC[C@]2(C)O [Methyltestosterone] ... 74.5
CC(=O)[C@H]1CC[C@H]2[C@@H]3CCC4=CC(=O)CC[C@]4(C)[C@H]3CC[C@]12C [Progesterone] ... 67.8
C=C[C@@]1(C)CC(=O)[C@]2(O)[C@@]3(C)[C@@H](O)CCC(C)(C)[C@@H]3[C@H](O)[C@H](OC(C)=O)[C@@]2(C)O1 [Forskolin] ... 59
CC(=O)CC(c1ccccc1)c1c(O)c2ccccc2oc1=O (stereo unspecified) [Warfarin] ... 85.8
CN1CCC(=C2c3ccccc3C=Cc3ccccc32)CC1 [Cyproheptadine hydrochloride sesquihydrate] ... 70.2
COc1cc([C@@H]2c3cc4c(cc3[C@@H](O[C@@H]3O[C@@H]5CO[C@@H](C)O[C@H]5[C@H](O)[C@H]3O)[C@H]3COC(=O)[C@H]23)OCO4)cc(OC)c1O [Etoposide] ... 138

###

# Tested on: HepG2 (L1.3 5'UTR promoter firefly luciferase reporter)
# PROTOCOL_DESCRIPTION: L1 promoter activity (FLuc/RLuc) relative to DMSO vehicle control (% of control); higher = stronger L1 promoter activation
# CONDITION: concentration (uM unless unit written): 50; treatment time: 24 h
Where a name gives a salt, the structure may show the parent alone.
L1 promoter activity values, listed per item
PROPERTY_NAME: L1 promoter activity

Clc1ccc(C(c2ccccc2Cl)C(Cl)Cl)cc1 (centres undefined) ... 108
CN1CCC(=C2c3ccccc3CC(=O)c3sccc32)CC1 [Ketotifen fumarate salt] ... 89.9
CC(=O)Oc1ccccc1C(=O)O ... 98.2
CN(C)CCC(c1ccc(Cl)cc1)c1ccccn1 (racemic) [(±)-Chlorpheniramine maleate salt] ... 96.2
COC(=O)[C@H](c1ccccc1Cl)N1CCc2sccc2C1 ... 110
Clc1ccccc1CN1CCc2sccc2C1 ... 113
C[C@]12CC[C@@H]3c4ccc(O)cc4CC[C@H]3[C@@H]1CC[C@@H]2O ... 103
CCOC(=O)[C@@]1(CCCCCCOc2ccc(Cl)cc2)CO1 ... 111
O=C(O)c1nn(Cc2ccc(Cl)cc2Cl)c2ccccc12 ... 93

###

L1 promoter activity values, listed per item
# System: HepG2 (L1.3 5'UTR promoter firefly luciferase reporter)
# PROTOCOL_DESCRIPTION: L1 promoter activity (FLuc/RLuc) relative to DMSO vehicle control (% of control); higher = stronger L1 promoter activation
# CONDITION: concentration (uM unless unit written): 100; treatment time: 6 h
Counter-ions that a name gives are not always drawn.
PROPERTY_NAME: L1 promoter activity

CN(Cc1cnc2nc(N)nc(N)c2n1)c1ccc(C(=O)N[C@@H](CCC(=O)O)C(=O)O)cc1 [Methotrexate] ... 93.4
O=C(O)c1nn(Cc2ccc(Cl)cc2Cl)c2ccccc12 ... 87.9
CN(C)CCC(c1ccc(Cl)cc1)c1ccccn1 (racemic) [(±)-Chlorpheniramine maleate salt] ... 101
CC(=O)CC(c1ccccc1)c1c(O)c2ccccc2oc1=O (stereo not given) ... 91.7
O=C1NC(=S)NC(=O)C1C(=O)Nc1ccccc1 ... 182

###

# System: HepG2 (L1.3 5'UTR promoter firefly luciferase reporter)
# PROTOCOL_DESCRIPTION: L1 promoter activity (FLuc/RLuc) relative to DMSO vehicle control (% of control); higher = stronger L1 promoter activation
# CONDITION: concentration (uM unless unit written): 100; treatment time: 6 h
Structures can show the parent of a compound that is named as a salt.
L1 promoter activity values, listed per item
PROPERTY_NAME: L1 promoter activity

CCOC(=O)[C@@]1(CCCCCCOc2ccc(Cl)cc2)CO1 [Etomoxir] ... 147
CCOC(=O)C(C)(C)Oc1ccc(Cl)cc1 [Clofibrate] ... 102
CC(C)OC(=O)C(C)(C)Oc1ccc(C(=O)c2ccc(Cl)cc2)cc1 [Fenofibrate] ... 141
CS(=O)(=O)OCCCCOS(C)(=O)=O [Busulfan] ... 111
CN1CCC(=C2c3ccccc3C=Cc3ccccc32)CC1 [Cyproheptadine hydrochloride sesquihydrate] ... 74.7
CC(=O)[C@H]1CC[C@H]2[C@@H]3CCC4=CC(=O)CC[C@]4(C)[C@H]3CC[C@]12C [Progesterone] ... 73.7
C[C@]12CC[C@@H]3c4ccc(O)cc4CC[C@H]3[C@@H]1CC[C@@H]2O [17β-Estradiol] ... 107
N.N.[Cl][Pt][Cl] [Cisplatin] ... 148
COC(=O)C1=C(C)NC(C)=C(C(=O)OC)C1c1ccccc1[N+](=O)[O-] [Nifedipine] ... 88.6
Clc1ccc(C(c2ccccc2Cl)C(Cl)Cl)cc1 (stereo unspecified) [o.p'-Dichlorodiphenyldichloroethane] ... 77.5
CC(=O)Oc1ccccc1C(=O)O [Acetylsalicylic acid] ... 123
CC(C)(Oc1ccc(CCNC(=O)c2ccc(Cl)cc2)cc1)C(=O)O [Bezafibrate] ... 140
Cc1cn([C@H]2C[C@H](N=[N+]=[N-])[C@@H](CO)O2)c(=O)[nH]c1=O [Azidothymidine] ... 106
NC1=NCC2c3ccccc3Cc3ccccc3N12 (stereo unspecified) [Epinastine hydrochloride] ... 93.6
NS(=O)(=O)c1cc(C(=O)O)c(NCc2ccco2)cc1Cl [Furosemide] ... 104
COC(=O)[C@H](c1ccccc1Cl)N1CCc2sccc2C1 [Clopidogrel] ... 84.6
CN1CCC(=C2c3ccccc3CC(=O)c3sccc32)CC1 [Ketotifen fumarate salt] ... 92.3
C=C[C@@]1(C)CC(=O)[C@]2(O)[C@@]3(C)[C@@H](O)CCC(C)(C)[C@@H]3[C@H](O)[C@H](OC(C)=O)[C@@]2(C)O1 [Forskolin] ... 89.2
NS(=O)(=O)c1cc2c(cc1Cl)NC(C(Cl)Cl)NS2(=O)=O (stereo unspecified) [Trichlormethiazide] ... 103
C[C@]12CCC(=O)C=C1CC[C@@H]1[C@@H]2CC[C@@]2(C)[C@H]1CC[C@]2(C)O [Methyltestosterone] ... 98.5
Clc1ccccc1CN1CCc2sccc2C1 [Ticlopidine] ... 97.5
